molecular target: T1, recombinant monomeric SARS-CoV-2 S1 protein, his-tagged (SARS-CoV-2, UniProt P0DTC2 16-681); experiment: flow cytometry, blocking of binding to hACE-2 cells
T1 construct: domain: S1
Response key: Condition met means percent blocking >= 90%; Condition not met means percent blocking < 90%.

Form field: percent blocking at least 90%? Entry: 1035752 (antibody, V domains shown) VH: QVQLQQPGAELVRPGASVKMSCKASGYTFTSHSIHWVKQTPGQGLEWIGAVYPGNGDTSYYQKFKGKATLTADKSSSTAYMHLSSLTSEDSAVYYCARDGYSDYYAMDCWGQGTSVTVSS VL: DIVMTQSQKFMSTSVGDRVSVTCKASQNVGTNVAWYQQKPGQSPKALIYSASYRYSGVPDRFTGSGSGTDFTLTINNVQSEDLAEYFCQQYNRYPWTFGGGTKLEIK
Condition met

Is reported percent blocking greater than or equal to 90% here: 1035740 (antibody, V domains shown) VH: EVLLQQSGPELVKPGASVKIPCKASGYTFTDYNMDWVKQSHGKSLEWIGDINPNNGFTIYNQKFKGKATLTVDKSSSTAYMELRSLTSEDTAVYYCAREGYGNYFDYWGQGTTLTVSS VL: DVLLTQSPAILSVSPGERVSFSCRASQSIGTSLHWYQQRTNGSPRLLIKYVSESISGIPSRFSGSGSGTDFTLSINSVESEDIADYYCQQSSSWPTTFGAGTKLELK
Condition met

Is it the case that 1035419 (antibody, V domains shown) VH: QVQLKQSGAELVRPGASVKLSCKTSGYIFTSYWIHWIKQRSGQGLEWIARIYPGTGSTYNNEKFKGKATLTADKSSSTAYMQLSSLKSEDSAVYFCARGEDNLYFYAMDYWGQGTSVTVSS VL: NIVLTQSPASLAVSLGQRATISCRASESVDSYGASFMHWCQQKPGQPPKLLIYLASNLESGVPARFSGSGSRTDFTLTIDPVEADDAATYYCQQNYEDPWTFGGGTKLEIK has percent blocking reaching or exceeding 90%?
Condition not met

// inclusive: percent blocking at least 90%? input: 1035414 (antibody, V domains shown) VH: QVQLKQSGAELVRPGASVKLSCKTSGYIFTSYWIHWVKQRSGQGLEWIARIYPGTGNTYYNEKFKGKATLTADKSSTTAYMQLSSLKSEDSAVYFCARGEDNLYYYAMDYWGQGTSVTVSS VL: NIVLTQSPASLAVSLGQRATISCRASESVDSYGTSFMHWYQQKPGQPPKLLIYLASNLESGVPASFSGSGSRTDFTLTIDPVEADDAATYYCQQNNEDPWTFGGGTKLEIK
Condition not met

Please check the record 1035762 (antibody, V domains shown) VH: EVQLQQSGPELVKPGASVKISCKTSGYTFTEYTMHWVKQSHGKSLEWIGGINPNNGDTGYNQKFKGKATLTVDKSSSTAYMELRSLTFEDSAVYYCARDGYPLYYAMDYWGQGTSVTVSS VL: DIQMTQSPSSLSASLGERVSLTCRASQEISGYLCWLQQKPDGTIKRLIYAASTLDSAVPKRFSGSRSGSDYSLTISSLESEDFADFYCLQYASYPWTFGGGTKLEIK and state if its percent blocking is at or above 90%.
Condition met
